- ASSAYED_SYSTEM: MELK (human) (UniProt Q14680)
- Sequence (Q14680 whole entry, looked up): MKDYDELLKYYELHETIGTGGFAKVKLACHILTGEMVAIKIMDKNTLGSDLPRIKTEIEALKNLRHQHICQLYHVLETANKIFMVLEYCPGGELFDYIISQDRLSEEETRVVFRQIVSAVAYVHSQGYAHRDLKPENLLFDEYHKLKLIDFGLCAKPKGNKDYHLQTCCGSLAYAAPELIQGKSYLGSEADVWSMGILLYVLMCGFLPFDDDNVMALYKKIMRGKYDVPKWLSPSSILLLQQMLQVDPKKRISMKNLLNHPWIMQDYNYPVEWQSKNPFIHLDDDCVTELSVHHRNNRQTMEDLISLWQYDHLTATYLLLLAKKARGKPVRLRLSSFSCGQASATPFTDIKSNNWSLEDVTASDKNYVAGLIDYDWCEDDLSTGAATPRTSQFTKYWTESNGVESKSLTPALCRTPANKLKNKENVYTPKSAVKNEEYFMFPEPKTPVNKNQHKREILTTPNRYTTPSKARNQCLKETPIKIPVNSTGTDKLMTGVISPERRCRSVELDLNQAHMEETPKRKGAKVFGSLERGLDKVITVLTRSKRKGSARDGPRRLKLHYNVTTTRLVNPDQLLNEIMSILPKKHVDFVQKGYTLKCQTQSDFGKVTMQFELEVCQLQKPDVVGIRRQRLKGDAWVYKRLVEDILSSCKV
- PROCEDURE_TEXT: radiometric filter-binding kinase assay
- EXPERIMENTAL_SETUP: compound 1.0 µM
# binarize residual activity: threshold 80% inclusive, high side Yes, low side No

MOLECULE	CLASS
COc1ccc(-n2ncc3cnc(Nc4cc(OC)c(OC)c(OCCCN5CCN(C)CC5)c4)nc32)cc1	No
NC(=O)Nc1ccc2c(c1)/C(=C/c1cc(-c3cccnc3)c[nH]1)C(=O)N2	No
O=C(Nc1nc2cc(C(F)(F)F)cc(NC3CC3)n2n1)c1cccnc1	Yes
COc1cc(O)c2c(c1)[C@H]1OC1C[C@H](O)[C@H](O)C(=O)/C=C\C[C@H](C)OC2=O (stereo not given in full)	Yes
COc1cc(O)c2c(c1)/C=C/C[C@H](O)[C@H](O)C(=O)/C=C\C[C@H](C)OC2=O	Yes
C[C@H]1CCCC(=O)CCC/C=C/c2cc(O)cc(O)c2C(=O)O1	Yes
O=C(NOCC(O)CO)c1ccc(F)c(F)c1Nc1ccc(I)cc1Cl (stereo not given)	Yes
Oc1ccc2ccccc2c1SSc1c(O)ccc2ccccc12	No
COc1ccc2c(c1)c1c3c(c4c5ccccc5n(C)c4c1n2CC(O)CN(C)C)C(=O)NC3=O (stereo not given)	No
Cc1nc(-c2ccc(OCC(C)C)c(C#N)c2)sc1C(=O)O	Yes
NC(=O)c1ccc(-c2ccc(Oc3cncc4sc(-c5nn[nH]n5)cc34)cc2)cc1	No
Oc1ccc(/C=C/c2cc(O)cc(O)c2)cc1	No
O=C(O)c1cc(N=Nc2ccc(S(=O)(=O)Nc3ccccn3)cc2)ccc1O	Yes
CC1=C(CO)C(=O)O[C@@H]([C@@H](C)[C@H]2CC[C@H]3[C@@H]4C[C@H]5O[C@]56[C@@H](O)C=CC(=O)[C@]6(C)C4CC[C@]23C)C1 (stereo not given in full)	Yes
CCc1cncnc1N1CCN(Cc2nc3cc(C(F)(F)F)ccc3[nH]2)CC1	Yes
CNc1nc(-c2ccc3c(N)n[nH]c3c2)cc(N2C[C@@H](C(=O)NC3CCCCC3)CC[C@H]2C)n1	No
NS(=O)(=O)OC[C@@H]1C[C@@H](n2ccc3c(N[C@H]4CCc5ccccc54)ncnc32)C[C@@H]1O	Yes
NC(=O)c1c(NC(=O)C2CC2)sc2c1CCCC2	No

* * *

- ASSAYED_SYSTEM: RIPK2 (human) (UniProt O43353)
- Sequence (O43353 whole entry, looked up): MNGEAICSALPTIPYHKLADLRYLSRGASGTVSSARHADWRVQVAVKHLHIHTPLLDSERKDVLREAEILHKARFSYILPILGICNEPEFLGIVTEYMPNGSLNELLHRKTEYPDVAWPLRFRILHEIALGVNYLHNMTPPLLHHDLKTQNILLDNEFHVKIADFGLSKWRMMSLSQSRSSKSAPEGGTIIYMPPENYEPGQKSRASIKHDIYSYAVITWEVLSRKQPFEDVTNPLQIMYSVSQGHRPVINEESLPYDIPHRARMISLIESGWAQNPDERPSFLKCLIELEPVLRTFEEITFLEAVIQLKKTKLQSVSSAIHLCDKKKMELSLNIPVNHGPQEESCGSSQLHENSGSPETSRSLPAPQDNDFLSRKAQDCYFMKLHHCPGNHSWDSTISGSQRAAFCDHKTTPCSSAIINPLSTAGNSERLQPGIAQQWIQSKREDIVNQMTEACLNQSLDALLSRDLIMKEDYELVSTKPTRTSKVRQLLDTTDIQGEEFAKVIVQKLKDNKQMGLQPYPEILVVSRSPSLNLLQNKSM
- PROCEDURE_TEXT: radiometric filter-binding kinase assay
- EXPERIMENTAL_SETUP: compound 1.0 µM
# binarize residual activity: threshold 90% inclusive, high side Met, low side Not met

COMPOUND	CLASS
Cc1cc(NC(=O)c2cccc(NC(=O)/C=C/CN(C)C)c2)ccc1Nc1nccc(-c2cccnc2)n1	Not met
N#Cc1c(C2CCNCC2)cc(-c2c(O)cccc2OCC2CC2)nc1N	Not met
O=C(N[C@@H](COc1ccc2[nH]c(=O)[nH]c2c1)c1ccccc1)c1cccn(Cc2ccc(F)c(F)c2)c1=O	Met
COc1cc2ncn(-c3cc(OCc4ccccc4S(C)(=O)=O)c(C#N)s3)c2cc1OC	Not met
NS(=O)(=O)OC[C@@H]1C[C@@H](n2ccc3c(N[C@H]4CCc5ccccc54)ncnc32)C[C@@H]1O	Met
CCNc1nc(Nc2cc(F)c(C(=O)N3CCOCC3)cc2OC)ncc1C(F)(F)F	Not met
Cc1nc(-c2ccc(OCC(C)C)c(C#N)c2)sc1C(=O)O	Met
CN(C)C/C=C/C(=O)Nc1cccc(C(=O)Nc2ccc(Nc3nccc(-c4cccnc4)n3)cc2)c1	Not met
Nc1cccc2c1CN(C1CCC(=O)NC1=O)C2=O (centres undefined)	Met
c1ccc2c(-c3cnn4cc(-c5ccc(N6CCNCC6)cc5)cnc34)ccnc2c1	Not met
CNc1nc(-c2ccc3c(N)n[nH]c3c2)cc(N2C[C@@H](C(=O)NC3CCCCC3)CC[C@H]2C)n1	Met
NC(=O)c1cc(-c2ccnc(NC3CCCCC3)c2)nc(N2CCNCC2)c1	Met
NC(=O)c1cc2c(-c3cccc(-c4ccccc4)c3)cnc(N)c2s1	Not met
COc1cc(C(=O)N2CCOCC2)c(F)cc1Nc1ncc(C(F)(F)F)c(NC2CC2)n1	Met
O=C(NOC[C@H](O)CO)c1ccc(F)c(F)c1Nc1ccc(I)cc1Cl	Met
COc1cc(O)c2c(c1)[C@H]1OC1C[C@H](O)[C@H](O)C(=O)/C=C\C[C@H](C)OC2=O (some centres undefined)	Not met
Cc1ccc(=O)n(-c2ccccc2)c1	Not met
O=C(Nc1ccccc1-c1cn2c(CN3CCNCC3)csc2n1)c1cnc2ccccc2n1	Met
O=C(Nc1cccnc1)c1cc(-c2ccnc(F)c2)ccc1OCc1ccccc1	Not met
NC(=O)c1c(NC(=O)C2CC2)sc2c1CCCC2	Not met
C=C1C(=O)OC2C1CC/C(C)=C/CCC1(C)OC21 (centres undefined)	Met
COc1cc(O)c2c(c1)/C=C/C[C@H](O)[C@H](O)C(=O)/C=C\C[C@H](C)OC2=O	Not met
CCCCCc1ccc(/C=C/[C@H](O)[C@@H](CO)NC)cc1	Met
NC(=O)c1ccc(-c2ccc(Oc3cncc4sc(-c5nn[nH]n5)cc34)cc2)cc1	Met
COc1ccc(-n2ncc3cnc(Nc4cc(OC)c(OC)c(OCCCN5CCN(C)CC5)c4)nc32)cc1	Not met
CC(C)(C#N)c1ccc(N2C(=O)OCc3cnc4ccc(-c5cnc6ccccc6c5)cc4c32)cc1	Not met
CNC(=O)C1[C@H]2O[C@@](C)([C@@H]1N)n1c3ccccc3c3c4c(c5c6ccccc6n2c5c31)C(=O)NC4 (some centres undefined)	Not met
NCC(=O)Nc1ccc(-n2nc(C(F)(F)F)cc2-c2ccc3c(ccc4ccccc43)c2)cc1	Met
O=C(NOCC(O)CO)c1ccc(F)c(F)c1Nc1ccc(I)cc1Cl (centres undefined)	Not met
Oc1ccc2ccccc2c1SSc1c(O)ccc2ccccc12	Met
Cc1cccc(-c2nn(C(=S)Nc3ccccc3)cc2-c2ccnc3ccccc23)n1	Not met
O=c1c(O)c(-c2ccc(O)c(O)c2)oc2cc(O)c(O)c(O)c12	Not met
FC(F)(F)c1ccc(-c2ccc(Oc3cncc4sc(-c5nn[nH]n5)cc34)cc2)cc1	Not met
NC1(c2ccc(-c3nc4ccn5c(=O)[nH]nc5c4cc3-c3ccccc3)cc2)CCC1	Not met
C=CC(=O)N1CCC[C@@H](n2nc(-c3ccc(Oc4ccccc4)cc3)c3c(N)ncnc32)C1	Not met
O=C(NCCCNc1nc(Nc2cccc(CN3CCOCC3)c2)ncc1C1CC1)C1CCC1	Met
CCn1c(-c2nonc2N)nc2cncc(CNC3CCNCC3)c21	Not met
CC1=C(CO)C(=O)O[C@@H]([C@@H](C)[C@H]2CC[C@H]3[C@@H]4C[C@H]5O[C@]56[C@@H](O)C=CC(=O)[C@]6(C)C4CC[C@]23C)C1 (some centres undefined)	Met
